# Measurement Target: Tyk2 (Homo sapiens (Human))
# Sequence (P29597 whole entry): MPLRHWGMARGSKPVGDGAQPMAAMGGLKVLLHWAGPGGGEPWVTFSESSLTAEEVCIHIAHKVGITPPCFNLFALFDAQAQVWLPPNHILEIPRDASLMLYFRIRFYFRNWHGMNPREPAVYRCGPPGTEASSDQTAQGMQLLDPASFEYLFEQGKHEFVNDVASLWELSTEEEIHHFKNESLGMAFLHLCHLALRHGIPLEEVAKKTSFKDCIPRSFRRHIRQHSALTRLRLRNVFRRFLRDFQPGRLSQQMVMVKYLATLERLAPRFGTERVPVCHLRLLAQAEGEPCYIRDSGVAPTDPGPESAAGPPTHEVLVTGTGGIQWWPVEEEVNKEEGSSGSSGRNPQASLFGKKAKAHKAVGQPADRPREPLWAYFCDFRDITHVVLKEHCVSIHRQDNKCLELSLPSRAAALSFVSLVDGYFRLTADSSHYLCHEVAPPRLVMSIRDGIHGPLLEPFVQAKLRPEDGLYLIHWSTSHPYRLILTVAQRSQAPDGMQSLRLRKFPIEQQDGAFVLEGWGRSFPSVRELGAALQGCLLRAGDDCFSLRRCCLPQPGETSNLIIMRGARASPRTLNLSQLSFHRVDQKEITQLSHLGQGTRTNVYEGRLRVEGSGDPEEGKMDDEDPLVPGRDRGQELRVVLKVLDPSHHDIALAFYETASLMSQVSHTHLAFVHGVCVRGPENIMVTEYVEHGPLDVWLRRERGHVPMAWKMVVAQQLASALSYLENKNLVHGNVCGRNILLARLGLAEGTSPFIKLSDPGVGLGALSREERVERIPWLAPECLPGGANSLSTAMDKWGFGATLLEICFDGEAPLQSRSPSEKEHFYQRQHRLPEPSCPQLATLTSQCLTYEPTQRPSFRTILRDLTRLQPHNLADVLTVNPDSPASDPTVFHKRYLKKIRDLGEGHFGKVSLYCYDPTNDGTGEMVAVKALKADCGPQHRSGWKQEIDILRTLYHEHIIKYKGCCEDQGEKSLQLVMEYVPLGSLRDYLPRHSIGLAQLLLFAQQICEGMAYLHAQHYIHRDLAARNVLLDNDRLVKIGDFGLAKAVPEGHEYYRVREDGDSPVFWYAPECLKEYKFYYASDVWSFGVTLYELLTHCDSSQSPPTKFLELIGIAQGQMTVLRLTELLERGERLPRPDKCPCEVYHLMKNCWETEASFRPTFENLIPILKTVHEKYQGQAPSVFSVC
# Test Description: pSTAT4 Cell Assay (MSD, NK92 cells)
# Type: cell-based
# Assay Conditions: MSD
pIC50: −log10 of the molar value.
Parameter Measured: pIC50

Prompt: What measured pIC50 goes with CC(=O)Nc1cc(Nc2cc(C)nc(C(C)(F)F)n2)c(OCc2nccn2C)cn1 ?
Completion: ≤ 6.00

Prompt: Moving on to the next compound: CCOc1cnc(NC(C)=O)cc1Nc1cc(O[C@H]2C[C@@H](OC)C2)cc(C(C)(F)F)n1
Completion: 7.00 to 8.00

Prompt: Moving on to the next compound: CCc1cc(Nc2cc(NC(C)=O)ncc2-c2ccc(COC)cn2)nc(C2CCOC2)n1 (centres unmarked)
Completion: ≥ 8.00

Prompt: Moving on to the next compound: COc1nc(C)cc(-c2cnc(NC(C)=O)cc2Nc2ccnc(C(C)(F)F)n2)n1
Completion: 7.00 to 8.00

Prompt: Moving on to the next compound: CC(=O)Nc1cc(Nc2cc(C)nc(C(C)(F)F)n2)c(-c2cc3n(n2)CCNC3=O)cn1
Completion: 7.00 to 8.00

Prompt: Moving on to the next compound: CC(=O)Nc1cc(Nc2cc(C)nc(C(C)(F)F)n2)c(-c2ncccn2)cn1
Completion: ≥ 8.00

Prompt: Moving on to the next compound: CC(=O)Nc1cc(Nc2cc(C)nc(C(C)(F)F)n2)c(-c2cc3n(n2)CCOC3)cn1
Completion: ≥ 8.00

Prompt: Moving on to the next compound: CC(=O)Nc1cc(Nc2cc(C)nc(C(C)(F)F)n2)c(-c2ncc(C)cn2)cn1
Completion: 7.00 to 8.00

###

# Measurement Target: UniProt:P29597
# Test Description: pSTAT4 Cell Assay (MSD, NK92 cells)
# Format: cell-based
# Assay Conditions: MSD
Task for the reader: assign each of the following compounds its reported IC50.

Prompt: What measured IC50 goes with CC(=O)Nc1cc(Nc2cc(C)nc(C(C)(F)F)n2)c(OC[C@@H]2CCC(=O)N2)cn1 ?
Completion: 100 to 1000 nM

Prompt: Moving on to the next compound: CCc1cnc(COc2cnc(NC(C)=O)cc2Nc2cc(C)nc(C(C)(F)F)n2)o1
Completion: 10 to 100 nM

Prompt: Moving on to the next compound: CC(=O)Nc1cc(Nc2cc(C)nc(C(C)(F)F)n2)c(-c2ncc(Cl)cn2)cn1
Completion: 10 to 100 nM

Prompt: Moving on to the next compound: CCOc1cc(-c2cnc(NC(C)=O)cc2Nc2cc(C)nc(C(C)(F)F)n2)ncn1
Completion: 10 to 100 nM

Prompt: Moving on to the next compound: COCCOc1cnc(NC(C)=O)cc1Nc1cncc(C(C)(F)F)n1
Completion: 10 to 100 nM

Prompt: Moving on to the next compound: CC(=O)Nc1cc(Nc2cc(C)nc(C(C)(F)F)n2)c(OCC2CC(=O)N(C)C2)cn1 (stereo not drawn)
Completion: 100 to 1000 nM

Prompt: Moving on to the next compound: CO[C@H]1C[C@@H](Oc2cnc(NC(C)=O)cc2Nc2cc(C(C)C)nc(C(C)(F)F)n2)C1
Completion: 10 to 100 nM

Prompt: Moving on to the next compound: CC(=O)Nc1cc(Nc2cc(C)nc(C(C)(F)F)n2)c(OC2CCOC2)cn1 (stereo not drawn)
Completion: 10 to 100 nM

Prompt: Moving on to the next compound: COCCn1cc(-c2cnc(NC(C)=O)cc2Nc2cc(C)nc(C(C)(F)F)n2)nn1
Completion: ≤ 10 nM

Prompt: Moving on to the next compound: CC(=O)Nc1cc(Nc2cc(C)nc(C(C)(F)F)n2)c(OCCc2cccnc2F)cn1
Completion: ≤ 10 nM

Prompt: Moving on to the next compound: CC(=O)Nc1cc(Nc2ccnc(C(C)(F)F)n2)c(-c2cc(C)ncn2)cn1
Completion: 10 to 100 nM

Prompt: Moving on to the next compound: CC(=O)Nc1cc(Nc2cc(C)nc(C(C)(F)F)n2)c(OCc2cnc(C)o2)cn1
Completion: 10 to 100 nM

Prompt: Moving on to the next compound: CC(=O)Nc1cc(Nc2cc(C)nc(C(C)(F)F)n2)c(OC[C@@H](C)OC(C)(C)C)cn1
Completion: 10 to 100 nM

Prompt: Moving on to the next compound: CC(=O)Nc1cc(Nc2cc(C)nc(C(C)(F)F)n2)c(OCC2CC2)cn1
Completion: 10 to 100 nM

Prompt: Moving on to the next compound: CC(=O)Nc1cc(Nc2cc(C)nc(C(C)(F)F)n2)c(-c2cc3n(n2)CCCN3C)cn1
Completion: ≤ 10 nM

Prompt: Moving on to the next compound: CC(=O)Nc1cc(Nc2cc(C)nc(C(C)(F)F)n2)c(OCc2ncccc2C)cn1
Completion: 100 to 1000 nM

Prompt: Moving on to the next compound: CC(=O)Nc1cc(Nc2cc(C)nc(C(C)(F)F)n2)c(-c2nn(C)cc2F)cn1
Completion: 10 to 100 nM

Prompt: Moving on to the next compound: CC(=O)Nc1cc(Nc2cc(C)nc(C34COC(C3)C4)n2)c(-c2cc3n(n2)CCN(C)C3)cn1
Completion: ≤ 10 nM
